# EXPERIMENT_NOTES: NTR1-driven beta-arrestin-GFP spot formation – imaging, U2OS cells, high content, primary screen (AID 493036)
# STUDY_CONDITIONS: agonist mode, measured here: cell count, cytotoxicity flag, at 20 µM
Screen size: about 330,000 compounds; about 560 (0.17%) were called active. This is one part of a sample in which actives are shown more often than they occur.
Decide by cell count: equal to or exceeding 60 cells means MET, less means NOT MET.

MOLECULE | CLASS_LABEL
COc1ccccc1CN(C)c1nnnn1-c1ccccc1 | NOT MET
CN(C(=O)c1cccc(NC(=O)C2CCN(C(=O)OC(C)(C)C)CC2)c1)C1CCC1 | NOT MET
Cc1ccc(-n2c(SCC(=O)NCc3ccc4c(c3)OCO4)nnc2-c2cccnc2)c(C)c1 | NOT MET
CSc1ccc(C#N)cc1NC(=O)c1ccc(Cl)cc1 | NOT MET
Cc1nnc(SCC(=O)N2c3ccccc3C(C)(c3ccc(Cl)cc3)CC2(C)C)s1 (configuration not stated) | NOT MET
O=S(=O)(c1ccccc1)N1CN(Cc2ccc(F)cc2)c2nc3ccccc3nc21 | NOT MET
Cc1cc2occ(CC(=O)NNC(=O)c3ccccc3F)c2cc1C | NOT MET
O=C(N/N=C/c1c(Cl)[nH]c2ccccc12)c1sc2ccccc2c1Cl | MET
CC(C)CC1(C(=O)NCc2ccccn2)C=CCN1C(=O)c1ccccc1 (configuration not stated) | NOT MET
Cc1coc(C)c1C(=O)CC1(O)C(=O)N(C)c2ccc(Cl)cc21 (configuration not stated) | MET
CCCCC[C@@H]1C=C(C(=O)O)[C@H](c2ccc(C#N)cc2)N1S(=O)(=O)c1ccc(C)cc1 | NOT MET
O=C(Nc1nnc(S(=O)(=O)N2CCCCCC2)s1)c1cccc(Br)c1 | NOT MET
CC(C)Cn1c(N)c(C(=O)NCc2cccs2)c2nc3ccccc3nc21 | MET
COc1ccccc1C(=O)Nn1cnnc1 | MET
CCC1(CC)C(=O)C2=C3C1[C@H](C(=O)OC)C=C(C(=O)OC)C[C@H]3[C@H]1C(=O)N(Cc3ccccc3)C(=O)[C@H]1[C@H]2C (some centres not stated) | NOT MET
CC(C)(C)OC(=O)NCCCCCNC(=O)c1[nH]cnc1C(=O)Nc1nccs1 | NOT MET
O=C1C2N=NN(CC(=O)N3N=C(c4cccc5ccccc45)CC3c3ccccc3)C2C(=O)N1c1ccccc1 (configuration not stated) | MET
COCC(C)OC(=O)c1c(N)n(CCCN2CCOCC2)c2nc3ccccc3nc12 (configuration not stated) | MET
Cc1nn(CC(=O)Nc2ccc(C#N)cc2)c(C)c1[N+](=O)[O-] | MET
Cc1nc2ccc(C(=O)N/N=C/c3ccc(O)cc3)cc2[nH]1 | NOT MET
Cc1ccc(N(C(=O)c2sc(C)nc2C)C(C(=O)NC(C)(C)C)c2ccncc2)cc1 (configuration not stated) | NOT MET
CC(Oc1ccccc1)C(=O)Nc1oc(-c2ccco2)c(-c2ccco2)c1C#N (configuration not stated) | MET
CC(Sc1nn(-c2ccc(Cl)cc2)c(=S)s1)C(=O)NCC1CCCO1 (configuration not stated) | MET
O=C(N/N=C/c1ccc(OC(=O)c2ccccc2Cl)cc1)c1ccc(O)cc1 | MET
COC(=O)C1=C(NC(=O)C(C)(C)C)CCS1 | NOT MET
COc1ccc(CC(NC(C)=O)C(=O)N2CCN(C(=O)Nc3cccc(Cl)c3)CC2)cc1OC (configuration not stated) | MET
CCC/C(C)=N\Nc1nc2c(c(=O)n(C)c(=O)n2C)n1C | NOT MET
COc1ccc(OC)c(S(=O)(=O)NCCC(C)C)c1 | MET
CCCCCCCCCCOC(=O)Cn1c(COc2cccc(OC)c2)[n+](C)c2ccccc21 | MET
O=C(CCC1CCN(C(=O)c2cccc(Cl)c2F)CC1)Nc1ccccc1 | MET
CC(OC(=O)CN1C(=O)COc2ccccc21)C(=O)NCc1ccc(F)cc1 (configuration not stated) | NOT MET
CN(C)/C=C(/C(=O)c1ccc(F)cc1)S(=O)(=O)c1ccc(F)cc1 | NOT MET
CC1CCN(S(=O)(=O)c2ccc3c(ccn3CC(=O)O)c2)CC1 | MET
O=C(CS(=O)(=O)c1ccc(C(F)(F)F)cn1)NNC(=O)c1ccccc1 | NOT MET
CCn1cc(/C=C(\NC(=O)c2ccc(C)cc2)C(=O)NCCN2CCOCC2)c2ccccc21 | MET
CCN(CC)S(=O)(=O)c1ccc(Cl)c(C(=O)NC(C)C(c2cccs2)N2CCCC2)c1 (configuration not stated) | NOT MET
COc1ccc(CNC(=O)CNC(=O)c2sc3ccccc3c2Cl)cc1OC | NOT MET
Cc1ccc2nc3c(cc(C(=O)NCCc4ccccc4)c(=N)n3CC3CCCO3)c(=O)n2c1 (configuration not stated) | NOT MET
CCn1c(Cc2cccs2)nnc1SCC(=O)c1ccc(C)cc1 | NOT MET

Origin of measurements: PubChem BioAssay AID493036
